src = patent US9511134B2

Overview of reported IC50 across a group of molecules:
Target: DRB1*0301 (Homo sapiens, UniProt P01903+P01911, A100K/A102G/A103R/A169T/F55Y/I96L/K41T/L162R/M171V/P40S/Q125H/Q178H/Q39Y/R42S/S66N/T106N/T262R/W38E/Y61H)
Sequence (P01903 26-254, other chains not shown): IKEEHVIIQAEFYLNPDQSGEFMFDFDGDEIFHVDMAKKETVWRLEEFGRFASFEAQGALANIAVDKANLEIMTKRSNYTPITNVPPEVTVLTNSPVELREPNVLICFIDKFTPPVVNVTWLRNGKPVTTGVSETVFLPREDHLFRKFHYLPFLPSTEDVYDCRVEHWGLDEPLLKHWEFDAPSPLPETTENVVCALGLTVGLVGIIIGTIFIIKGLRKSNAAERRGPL
Test: biochemical
Report the value in nM with no unit label.

Some molecules with recorded IC50:
smiles.str	IC50 / nM
CC[C@H](C)[C@H](NC(=O)[C@H](CC(C)C)NC(=O)[C@H](CC(=O)O)NC(=O)[C@H](CC(=O)O)NC(=O)[C@H](CCCCN)NC(=O)[C@H](CC(C)C)NC(=O)CNC(=O)[C@H](C)NC(=O)[C@@H](N)CO)C(=O)N[C@@H](CCC(=O)O)C(=O)N[C@@H](CC(N)=O)C(=O)N[C@@H](CC(C)C)C(=O)N[C@@H](CCC(N)=O)C(=O)N[C@@H](C)C(=O)N[C@@H](Cc1ccc(O)cc1)C(=O)O	64
CC[C@H](C)[C@H](NC(=O)[C@H](CCCNC(=N)N)NC(=O)[C@H](CCCCN)NC(=O)[C@H](CC(=O)O)NC(=O)[C@H](C)NC(=O)[C@@H](NC(=O)[C@@H](NC(=O)[C@@H]1CCCN1C(=O)[C@H](Cc1ccc(O)cc1)NC(=O)[C@@H](N)CCCCN)[C@@H](C)CC)[C@@H](C)O)C(=O)N[C@@H](CCSC)C(=O)N[C@@H](CCC(=O)O)C(=O)N[C@@H](CCSC)C(=O)N[C@H](C(=O)N1CCC[C@H]1C(=O)O)[C@@H](C)CC	48

Please find the next molecule below.
Inquiry: Can you look up the measured IC50 of "CC[C@H](C)[C@H](NC(=O)[C@H](CC(C)C)NC(=O)[C@H](CCSC)NC(=O)[C@H](CC(C)C)NC(=O)[C@H](Cc1c[nH]c2ccccc12)NC(=O)[C@H](CC(=O)O)NC(=O)[C@H](CCCNC(=N)N)NC(=O)[C@H](CO)NC(=O)[C@H](CCSC)NC(=O)[C@H](CCC(=O)O)NC(=O)[C@H](CCC(=O)O)NC(=O)[C@@H](N)CC(C)C)C(=O)N1CCC[C@H]1C(=O)N[C@@H](CCCCN)C(=O)N[C@@H](CCC(N)=O)C(=O)O" for me?
Reply text: 170
